Hello, the source for this data is patent US7560473B2, in case you need it.

tested on: outward potassium currents of rat tail arterial SMCs; assay: Whole cell recording of outward potassium currents in rat tail arterial SMCs; type: cell-based, Wistar rats; settings: outward potassium current amplitude after compound 100 μmol L^−1 in the bath; X ± SD n = 5
Marks after values point to notes of the source that are not given here.
A collection of molecules and their measured Currents, + Compound
Endpoint: Currents, + Compound

Molecule: CC(C)C(C)(C)NCc1ccccc1 [compound 24]
Result: 0.63 ± 0.19 nA

Molecule: CCCNC(C)(C)C(C)C [compound 5, N-propyl-2,3-dimethyl-2-butylamine]
Result: 0.67 ± 0.30 nA

Molecule: CNC(C)(C)C(C)C [compound 3]
Result: 0.60 ± 0.34 nA

Molecule: CC(C)C(C)(C)N [compound 2]
Result: 1.01 ± 0.57 nA

Molecule: CCCCNC(C)(C)C(C)C [compound 6, N-butyl-2,3-dimehyl-2-butylamine]
Result: 1.18 ± 0.54* nA

Molecule: CCNC(C)(C)C(C)C [compound 4]
Result: 0.69 ± 0.14** nA

====

tested on: rats anesthetized with pentobarbital sodium; assay: Effects on blood pressure, heart rate, cardiac contraction and dilation in rats anesthetized with pentobarbital sodium; format: in vivo, Wistar rats; parameters: unit not given here; conditions: change after injection through femoral vein; '+' = increase, all others = decrease; mean, n = 3~5; doses mg/kg: 2, 8, 12: 10; 3-7, 9-11, 40-44: 5
Endpoint: SBP: systolic blood pressure

Structure string: CC(C)C(C)(C)NC(=O)[C@@H](N)Cc1ccccc1
Result: +3
//
Structure string: CC[C@H](C)[C@H](N)C(=O)NC(C)(C)C(C)C
Result: +2
//
Structure string: CC(C)C[C@H](N)C(=O)NC(C)(C)C(C)C
Result: +2
//
Structure string: CC(C)C(C)(C)NC(=O)[C@@H](N)Cc1c[nH]c2ccccc12
Result: +2

====

test system: rats anesthetized with pentobarbital sodium; assay: Effects on blood pressure, heart rate, cardiac contraction and dilation in rats anesthetized with pentobarbital sodium; assay type: in vivo, Wistar rats; design: unit not given here; conditions: change after injection through femoral vein; '+' = increase, all others = decrease; mean, n = 3~5; doses mg/kg: 2, 8, 12: 10; 3-7, 9-11, 40-44: 5
A collection of compounds and their measured −dp/dtmax: the maximal rate of the decrease of left ventricular pressure
Endpoint: −dp/dtmax: the maximal rate of the decrease of left ventricular pressure

Structure string: CC(C)C(C)(C)NC(=O)[C@@H](N)Cc1c[nH]c2ccccc12
Result: +6
--
Structure string: CC(C)C[C@H](N)C(=O)NC(C)(C)C(C)C
Result: +13
--
Structure string: CCC(C)(C)NC
Result: +86
--
Structure string: CC[C@H](C)[C@H](N)C(=O)NC(C)(C)C(C)C
Result: +2
--
Structure string: CC(C)C(C)(C)NC(=O)[C@@H](N)Cc1ccccc1
Result: +10
